Reported pEC50 by item:
# Tested on: Human immunodeficiency virus 1
# experimental protocol: Antiviral activity against HIV-1 IIIB infected in human C8166 cells assessed as reduction in virus -induced cytopathic effect measured after 48 hrs by CellTiter-Glo Luminescent cell viability assay
# Format: functional, organism-based
# condition description: Human immunodeficiency virus 1, IIIB, C8166, 48 h
pEC50: −log10 of the molar value.

compound	pEC50
CCC(C)Sc1nc(O)cc(Cc2c(F)cccc2F)n1 (stereo unspecified)	7.40
CCC(C)Sc1nc(O)c(C)c(Cc2c(Cl)cccc2Cl)n1 (stereo unspecified)	7.30
CC(C)CCSc1nc(Cc2c(F)cccc2I)cc(=O)[nH]1	7.30
CCC(C)Sc1nc(O)cc(Cc2c(Cl)cccc2Cl)n1 (stereo unspecified)	6.85
CC(C)CCSc1nc(Cc2c(F)cccc2F)cc(=O)[nH]1	7.30
CCC(C)Sc1nc(Cc2c(F)cccc2I)cc(=O)[nH]1 (stereo unspecified)	7.30
